Kindly state IC50 for each of the entries shown.
- Measured Target: aggregated recombinant human-microtubule associated protein Tau (Homo sapiens)
- Construct: Recombinant human-microtubule associated protein Tau purified from E. coli is aggregated at a concentration of 5 μM with Arachidonic Acid (100 μM) in Tris 10 mM pH8, 24 h at 37° C
- Sequence (P10636 whole entry): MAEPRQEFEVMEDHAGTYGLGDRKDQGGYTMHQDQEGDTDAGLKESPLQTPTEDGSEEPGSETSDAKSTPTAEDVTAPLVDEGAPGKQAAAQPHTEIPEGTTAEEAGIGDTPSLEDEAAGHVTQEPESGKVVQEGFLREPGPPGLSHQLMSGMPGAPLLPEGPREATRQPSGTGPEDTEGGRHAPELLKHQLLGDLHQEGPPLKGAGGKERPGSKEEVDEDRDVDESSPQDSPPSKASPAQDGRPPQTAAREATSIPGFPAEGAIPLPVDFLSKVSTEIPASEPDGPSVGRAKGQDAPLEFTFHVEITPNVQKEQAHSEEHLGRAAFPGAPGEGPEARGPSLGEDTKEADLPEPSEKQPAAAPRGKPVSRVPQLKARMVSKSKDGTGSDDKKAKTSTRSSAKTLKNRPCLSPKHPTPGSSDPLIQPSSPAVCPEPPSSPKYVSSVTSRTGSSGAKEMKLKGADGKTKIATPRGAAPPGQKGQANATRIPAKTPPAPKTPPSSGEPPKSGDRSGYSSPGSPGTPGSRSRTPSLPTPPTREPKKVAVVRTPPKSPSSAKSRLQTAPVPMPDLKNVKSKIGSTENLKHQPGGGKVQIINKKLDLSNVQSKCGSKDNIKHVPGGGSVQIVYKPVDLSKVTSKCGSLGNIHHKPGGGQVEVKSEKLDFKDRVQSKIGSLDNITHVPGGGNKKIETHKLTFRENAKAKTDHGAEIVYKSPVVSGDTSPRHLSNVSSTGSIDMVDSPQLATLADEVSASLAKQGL
- Procedure Summary: Thiazin-red R displacement fluorescence assay on aggregated Tau
- Reported Conditions: displacement of Thiazin-red R from aggregated Tau; compound 0.3 nM to 10000 nM; 30 min room temperature; Ex 531 nm/Em 595 nm
- Protocol: Assay for Determination of […] for Tau and A-Beta Recombinant human-microtubule associated protein Tau purified from E. coli is aggregated at a concentration of 5 μM with Arachidonic Acid (100 μM) in Tris 10 mM pH8, 24 h at 37° C. Synthetic Aβ40 is aggregated at a concentration of 50 μM with Arachidonic Acid (100 μM) in Tris 10 mM pH8, for three days at 37° C., under shaking at 150 rpm. […]
Quick reminder: number only, in µM, skip the unit.

The measured IC50 associated with "COc1cc(/C=c2\sc3nc(-c4cccc(C#N)c4)cn3c2=O)cc(OC(C)C)c1O" reads 0.275

Value of IC50 reported for the compound "COc1cc(/C=c2\sc3nc(-c4ccc(C(=O)N(C)CCCF)cc4)cn3c2=O)cc(F)c1O" is 0.041

"COc1cc(/C=c2\sc3nc(-c4cccc(C#N)c4)cn3c2=O)cc(Cl)c1O" yielded IC50 of 0.006

Just so you know, measured IC50 for "COc1cc(/C=c2\sc3nc(-c4cccc(N5CCOCC5)c4)cn3c2=O)cc(Cl)c1O" came out at 0.024

IC50 reported for this compound "COc1cc(/C=c2\sc3nc(-c4cccc(OC(F)(F)F)c4)cn3c2=O)cc(OC)c1O" : 0.004

Just so you know, measured IC50 for "O=c1/c(=C/c2cc(F)c(O)c(OCCCF)c2)sc2nc(-c3ccncc3)cn12" came out at 0.017

Quick note, IC50 for "CCCOc1cc(/C=c2\sc3nc(-c4ccc(-n5cnc(C)c5)nc4)cn3c2=O)cc(Cl)c1O" landed at 0.008

In plain terms, "CCCOc1cc(/C=c2\sc3nc(-c4ccncc4)cn3c2=O)cc(Cl)c1O" has a documented IC50 of 0.017

// IC50 value for "COc1cc(/C=c2\sc3nc(-c4ccncc4)cn3c2=O)cc(F)c1O" : 0.02

IC50 for "COc1cc(/C=c2\sc3nc(-c4ccnc(C)c4)cn3c2=O)ccc1O" is 0.079

IC50 recorded for this compound, "COc1cc(/C=c2\sc3nc(-c4ccc(Cl)cc4)cn3c2=O)cc(C)c1O" , is 0.007

###

Field: IC50. Provide a value for each of the compounds that follow.
- Measured Target: aggregated recombinant human-microtubule associated protein Tau (Homo sapiens)
- Construct: Recombinant human-microtubule associated protein Tau purified from E. coli is aggregated at a concentration of 5 μM with Arachidonic Acid (100 μM) in Tris 10 mM pH8, 24 h at 37° C
- Procedure Summary: Thiazin-red R displacement fluorescence assay on aggregated Tau
- Reported Conditions: displacement of Thiazin-red R from aggregated Tau; compound 0.3 nM to 10000 nM; 30 min room temperature; Ex 531 nm/Em 595 nm
The reply should be a number in µM, with the unit left off.

Lab book: IC50 of "COc1cc(/C=c2\sc3nc(-c4cccc(C(=O)N(C)CCF)c4)cn3c2=O)cc(Cl)c1O" noted as 0.049

Entry "COc1cc(/C=c2\sc3nc(-c4ccccc4)cn3c2=O)cc(Cl)c1O" — recorded IC50 = 0.025

The compound identified as "CCCOc1cc(/C=c2\sc3nc(-c4cncnc4)cn3c2=O)cc(Cl)c1O" registered its IC50 at 0.067

Quick note, IC50 for "COc1cc(/C=c2\sc3nc(-c4ccc(Cl)cc4)cn3c2=O)cc(F)c1O" landed at 0.011

The value of IC50 measured for the compound "COc1cc(/C=c2\sc3nc(-c4c(F)cccc4F)cn3c2=O)cc(Cl)c1O" turned out to be 0.013

###

- Measured Target: aggregated synthetic Aβ40 (Homo sapiens, UniProt P05067)
- Construct: Synthetic Aβ40 is aggregated at a concentration of 50 μM
- Sequence (P05067 672-711 limits assumed): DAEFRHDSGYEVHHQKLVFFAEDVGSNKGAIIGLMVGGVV
- Procedure Summary: Thiazin-red R displacement fluorescence assay on aggregated A-beta
- Reported Conditions: displacement of Thiazin-red R from aggregated Aβ40; compound 0.3 nM to 10000 nM; 30 min room temperature; Ex 531 nm/Em 595 nm
- Method: Assay for Determination of […] for Tau and A-Beta Recombinant human-microtubule associated protein Tau purified from E. coli is aggregated at a concentration of 5 μM with Arachidonic Acid (100 μM) in Tris 10 mM pH8, 24 h at 37° C. Synthetic Aβ40 is aggregated at a concentration of 50 μM with Arachidonic Acid (100 μM) in Tris 10 mM pH8, for three days at 37° C., under shaking at 150 rpm. […]
pIC50: −log10 of the molar value.
Label t when pIC50 is at or above 7; anything below gets f.

Prompt: Hello, I need to know if "C=CCOc1cccc(-c2cn3c(=O)/c(=C/c4cc(Cl)c(O)c(OC)c4)sc3n2)c1" has measured pIC50 not below 7. Thanks!
Completion: t

Prompt: Is it the case that "COc1cc(/C=c2\sc3nc(-c4ccc(C(=O)NCCF)cc4)cn3c2=O)cc(Cl)c1O" has pIC50 reaching or exceeding 7?
Completion: f

Prompt: In plain terms: is recorded pIC50 at least 7 for "COc1cc(/C=c2\sc3nc(-c4cc(F)cc(F)c4)cn3c2=O)cc(Cl)c1O" ?
Completion: f

Prompt: Textbook exercise: given the entry "COc1cc(/C=c2\sc3nc(-c4ccc(Cl)cc4)cn3c2=O)cc(C)c1O" , state whether its pIC50 is greater than or equal to 7.
Completion: t

Prompt: pIC50 >= 7 for "COc1cc(/C=c2\sc3nc(-c4ccc(C(=O)NCCN)cc4)cn3c2=O)cc(Cl)c1O" ?
Completion: t

Prompt: Evaluate "COc1cc(/C=c2\sc3nc(-c4cccc(OCCF)c4)cn3c2=O)cc(Cl)c1O" : pIC50 at minimum 7?
Completion: t

Prompt: Does "CNC(=O)c1ccc(-c2cn3c(=O)/c(=C/c4cc(Cl)c(O)c(OC)c4)sc3n2)cc1" have a reported pIC50 of at least 7?
Completion: f

Prompt: Assess whether reported pIC50 for "COc1cc(/C=c2\sc3nc(-c4ccc(C(=O)OCCCF)cc4)cn3c2=O)cc(Cl)c1O" sits at 7 or higher.
Completion: f

Prompt: Check this compound for pIC50 at or above 7: "COc1cc(/C=c2\sc3nc(-c4ccnc(C)c4)cn3c2=O)cc(OC)c1O"
Completion: t

Prompt: Test whether the compound "CCCOc1cc(/C=c2\sc3nc(-c4cnccn4)cn3c2=O)cc(Cl)c1O" records pIC50 of 7 or higher.
Completion: f

Prompt: Does the reported pIC50 for "CNC(=O)c1cccc(-c2cn3c(=O)/c(=C/c4cc(Cl)c(O)c(OC)c4)sc3n2)c1" fall at or above the 7 mark?
Completion: f

Prompt: pIC50 >= 7 for "CCCNC(=O)c1cccc(-c2cn3c(=O)/c(=C/c4cc(Cl)c(O)c(OC)c4)sc3n2)c1" ?
Completion: f

Prompt: Please indicate if the recorded pIC50 for "COc1cc(/C=c2\sc3nc(-c4ccnc(C)c4)cn3c2=O)cc(F)c1O" meets or exceeds 7.
Completion: f

###

- Measured Target: aggregated recombinant human-microtubule associated protein Tau (Homo sapiens)
- Construct: Recombinant human-microtubule associated protein Tau purified from E. coli is aggregated at a concentration of 5 μM with Arachidonic Acid (100 μM) in Tris 10 mM pH8, 24 h at 37° C
- Procedure Summary: Thiazin-red R displacement fluorescence assay on aggregated Tau
- Reported Conditions: displacement of Thiazin-red R from aggregated Tau; compound 0.3 nM to 10000 nM; 30 min room temperature; Ex 531 nm/Em 595 nm
- Protocol: Assay for Determination of […] for Tau and A-Beta Recombinant human-microtubule associated protein Tau purified from E. coli is aggregated at a concentration of 5 μM with Arachidonic Acid (100 μM) in Tris 10 mM pH8, 24 h at 37° C. Synthetic Aβ40 is aggregated at a concentration of 50 μM with Arachidonic Acid (100 μM) in Tris 10 mM pH8, for three days at 37° C., under shaking at 150 rpm. […]
IC50 strictly under 20 nM means T; at 20 nM or over means F.

Prompt: Given C=CCOc1cccc(-c2cn3c(=O)/c(=C/c4cc(Cl)c(O)c(OC)c4)sc3n2)c1 [Example 80] , is recorded IC50 strictly lower than 20 nM?
Completion: T

Prompt: Lab note: confirm whether the reported IC50 for this compound is below 20 nM, equality not counting. compound: COc1cc(/C=c2\sc3nc(-c4cccc(C(=O)NCCF)c4)cn3c2=O)cc(Cl)c1O [Example 106]
Completion: T

Prompt: Hello, I'm reviewing records and need to know if IC50 of COc1cc(/C=c2\sc3nc(-c4ccnc(C)c4)cn3c2=O)cc(OC)c1O [Example 16] is below 20 nM. Could you check?
Completion: T

Prompt: Input COc1cc(/C=c2\sc3nc(-c4cccc(F)c4)cn3c2=O)cc(Cl)c1O [Example 57] ; condition: IC50 strictly below 20 nM. Does it hold?
Completion: T

Prompt: Hello, I'm reviewing records and need to know if IC50 of COc1cc(/C=c2\sc3nc(-c4ccc(C(=O)N5CCC(F)CC5)cc4)cn3c2=O)cc(Cl)c1O [Example 127] is below 20 nM. Could you check?
Completion: T

Prompt: Could you please tell me whether IC50 recorded for COc1cc(/C=c2\sc3nc(-c4ccc(C(=O)N(C)CCF)cc4)cn3c2=O)cc(Cl)c1O [Example 125] is less than 20 nM?
Completion: T

Prompt: Criterion: IC50 strictly below 20 nM. Is it met by COc1cc(/C=c2\sc3nc(-c4ccc(C(N)=O)cc4)cn3c2=O)cc(Cl)c1O [Example 101] ?
Completion: T

Prompt: Could you please tell me whether IC50 recorded for COc1cc(/C=c2\sc3nc(-c4ccc(C(=O)N(C)C)cc4)cn3c2=O)cc(Cl)c1O [Example 126] is less than 20 nM?
Completion: F

Prompt: Lab note: IC50 threshold 20 nM. Does this compound come in strictly under it? COc1cc(/C=c2\sc3nc(-c4cccc(N5CCCC5=O)c4)cn3c2=O)cc(Cl)c1O [Example 94]
Completion: F

Prompt: Does the reported IC50 of COc1cc(/C=c2\sc3nc(-c4cccc(OCCOCCOCCF)c4)cn3c2=O)cc(Cl)c1O [Example 95] stay below 20 nM?
Completion: F

Prompt: Does the reported IC50 of COc1cc(/C=c2\sc3nc(-c4cc(C)nc(C)c4)cn3c2=O)ccc1O [Example 13] stay below 20 nM?
Completion: F

Prompt: Identify whether the compound COc1cc(/C=c2\sc3nc(-c4cc(C)nc(C)c4)cn3c2=O)cc(Br)c1O [Example 65] records IC50 below 20 nM.
Completion: T

Prompt: Find out if reported IC50 for COc1cc(/C=c2\sc3nc(-c4ccc(C(F)(F)F)c(F)c4)cn3c2=O)cc(Cl)c1O [Example 28] is less than 20 nM
Completion: F

Prompt: Please check: IC50 for COc1cc(/C=c2\sc3nc(-c4ccc(C(=O)N(C)CCOCCF)cc4)cn3c2=O)cc(Cl)c1O [Example 23] , strictly under 20 nM or not?
Completion: F

Values from patent US20150157739A1
